src = ChEMBL document CHEMBL1201862

For each record, write down the corresponding GI50.
# Tested on: MOLT-4
# assay_overview: NCI tumour cell line growth inhibition, 48 h
Active and inactive are the calls of the source. Cut-off read from the data, not from the text of the source: active = GI50 up to about 1.1 µM and inactive = higher.

Cc1cc(S(=O)(=O)/N=C(\NN)Nc2ccc(Cl)cc2)c(S)cc1Cl: 2.75 µM (inactive)
Fc1ccccc1C1SCC2=Nc3ccccc3CN21 (stereo not given): > 100 µM (inactive)
O=C(/C=C/c1ccc(O)c(O)c1)OCCOC(=O)/C=C/c1ccc(O)c(O)c1: 20.9 µM (inactive)
Cc1ccc(N2C(=O)N(c3ccc(C)cc3)C3(SC=NN3C)C2=O)cc1 (stereo not given): 63.2 µM (inactive)
C=C(C)C(=O)OC1CC2=CC(CC3(C)OC3C3OC(=O)C(=C)C13)OC2=O (stereo not given): 1.84 µM (inactive)

For every item below, please supply its GI50.
1. NCc1ccc(-c2ccc(-c3ccc(-c4ccc(CN)s4)s3)s2)s1
2. Cc1cc(N(CCC#N)CCC#N)ccc1/C=C1N=C(/C=C\c2ccccc2)N(c2ccc(C(=O)O)cc2)C\1=O
3. C/C(=C/CC[C@](C)(OC1OC(CO)C(O)C(O)C1O)[C@H]1CC[C@]2(C)[C@@H]1CC[C@@H]1[C@@]3(C)CC[C@H](O)C(C)(C)[C@@H]3C[C@H](O)[C@]12C)CO (stereo not given in full)
4. O=S(=O)(/N=c1\[nH]c(-c2cc(O)c(O)c(O)c2)cs1)c1ccc(Cl)cc1Cl
5. CC(=O)OCC(OC(C)=O)C(OC(C)=O)C(/C=N\Nc1nc2ccccc2c(=O)[nH]1)OC(C)=O (stereo not given)
6. CCOC(=O)c1cc2cc(C)cc(C(=O)c3ccc([N+](=O)[O-])cc3)c2[nH]1
7. CC(=O)Oc1c2oc3cc(O)c(O)cc3c2c(OC(C)=O)c2oc3cc(O)c(O)cc3c12
8. CCOC(=O)NN(C(=O)OCC)c1c(C)cc(C)cc1C

**A:**
> 100 µM (inactive)
> 100 µM (inactive)
12.2 µM (inactive)
20.7 µM (inactive)
86.9 µM (inactive)
> 100 µM (inactive)
2.64 µM (inactive)
> 100 µM (inactive)

For every item below, please supply its GI50.
1. O=c1n(Cc2ccccc2)c2ccccc2n1CC1CS1 (stereo not given)
2. O=C1CC2(CCNCC2)C(=O)N1N1CCOCC1
3. CC(C)(Cl)C(Br)CCC(C)(Br)C(Br)CBr (stereo not given)
4. CC(C)(C)OC(=O)NCCC(=O)NC1(c2cc3ccccc3s2)CCCCC1

**A:**
1. > 100 µM (inactive)
2. > 100 µM (inactive)
3. 19.6 µM (inactive)
4. 10.9 µM (inactive)

For every item below, please supply its GI50.
1. Cc1nc(Nc2ccc(Cl)c(Cl)c2)sc1C(=O)/C=C/c1ccc2c(c1)OCO2
2. CC1(C)CCSC(/C=C/c2ccccc2)=N1
3. COC(=O)/C(=N\NC(=O)c1ccccc1O)C(C#N)c1ccccc1 (stereo not given)

**A:**
["14.9 µM (inactive)", "19 µM (inactive)", "22.3 µM (inactive)"]
